Reference source: patent US20240018145A1

tested on: FLU A (PR/8/34); assay: Flu A Neuraminidase Antiviral Assay; assay type: cell-based
pEC50: −log10 of the molar value.
Metric: pEC50

For orientation, consider the following solved cases.
{"Molecule": "CN1C(=O)c2c(O)c(=O)ccn2N2C(c3ccccc3)C(CC(F)(F)F)CCC12 (single isomer, unassigned) [Compound 118A]", "Target System": "FLU A (PR/8/34)", "Metric": "pEC50", "Recorded Result": "< 5.09"}
{"Molecule": "CCCC1CCC2N(C)C(=O)c3c(O)c(=O)ccn3N2C1(C)c1ccccc1 (single isomer, unassigned) [Compound 33D]", "Target System": "FLU A (PR/8/34)", "Metric": "pEC50", "Recorded Result": 8.64}
{"Molecule": "CN1C(=O)c2c(O)c(=O)ccn2N2C(c3ccccc3)C(c3cc(F)c(F)cc3F)CCC12 (single isomer, unassigned) [Compound 86C]", "Target System": "FLU A (PR/8/34)", "Metric": "pEC50", "Recorded Result": 6.64}
{"Molecule": "CN1C(=O)c2c(O)c(=O)ccn2N2C(c3ccccc3)C(O)CCC12 (stereo not shown) [Compound 136B]", "Target System": "FLU A (PR/8/34)", "Metric": "pEC50", "Recorded Result": "< 5.09"}
{"Molecule": "CN1C(=O)c2c(O)c(=O)ccn2N2C1CCC1(CCCC(F)(F)C1)C2c1ccccc1 (single isomer, unassigned) [Compound 75A]", "Target System": "FLU A (PR/8/34)", "Metric": "pEC50", "Recorded Result": "< 6.09"}

Exam item: pEC50 lookup needed for CCN1C(=O)c2c(O)c(=O)ccn2N2C(c3ccccc3)C(CC(F)(F)F)CCC12C (single isomer, unassigned) [Compound 82A] , thanks.
Marked response: < 6.09

Exam item: pEC50 lookup needed for CN1C(=O)c2c(O)c(=O)ccn2N2C1CCC1(CCC(C(F)(F)F)CC1)C2c1ccccc1 (single isomer, unassigned) [Compound 73A] , thanks.
Marked response: < 6.09
